// provenance: paper PMC11528066

Test: Biodistribution (γ-counter)
Assay type: in vivo, BALB/C nude mice
Details: male, BALB/C nude, mouse, tumor and liver, iv, with HN11-1 (block; amount not stated), total radioactivity; 60 min HN11-1 Block; mean ± SD, n = 3; read-out: Tumor/Liver ratio
Method: Micro-PET imaging was conducted using an Inveon PET scanner (Siemens, Germany). Dynamic PET examine were acquired over the first 60 min following the simultaneous injection of 7.4 to 9.25 MBq (200 to 250 μCi) of [^68Ga]Ga-HN11-1 and [^68Ga]Ga-HN11-2. […] The samples were counted using the γ-counter for determining the %ID/g, presented as mean ± standard deviation (SD). […]
Peptide text beside a SMILES is read from it. * marks the point of attachment. NOTA = O=C(O)CN1CCN(CC(=O)O)CCN(CC(=O)*)CC1; AEEEA = NCCOCCOCCOCC(=O)O
Measured property: tissue to tissue ratio at 1 h
Respond with the number and no other words.

Give the measured tissue to tissue ratio at 1 h of CC[C@H](C)[C@H](NC(=O)[C@H](CCCNC(=N)N)NC(=O)CNC(=O)[C@H](CCC(=O)O)NC(=O)[C@H](CC(N)=O)NC(=O)[C@H](Cc1ccc(O)cc1)NC(=O)[C@H](CCCNC(=N)N)NC(=O)[C@H](Cc1ccc(O)cc1)NC(=O)[C@H](Cc1c[nH]cn1)NC(=O)COCCOCCOCCNC(=O)CN1CCN(CC(=O)O)CCN(CC(=O)O)CC1)C(=O)N[C@@H](CCCNC(=N)N)C(=O)N[C@@H](CC(N)=O)C(=O)O [[^68Ga]Ga-HN11-1, metal not drawn] ({NOTA-AEEEA}-HYRYNEGRIRN-OH) .
0.57

###

Experiment: Biodistribution (γ-counter)
Type: in vivo, BALB/C nude mice
Conditions: male, BALB/C nude, mouse, tumor and blood, iv, total radioactivity; 60 min p.i.; mean ± SD, n = 3; read-out: Tumor/Blood ratio
Description: Micro-PET imaging was conducted using an Inveon PET scanner (Siemens, Germany). Dynamic PET examine were acquired over the first 60 min following the simultaneous injection of 7.4 to 9.25 MBq (200 to 250 μCi) of [^68Ga]Ga-HN11-1 and [^68Ga]Ga-HN11-2. […] The samples were counted using the γ-counter for determining the %ID/g, presented as mean ± standard deviation (SD). […]
Peptide text beside a SMILES is read from it. * marks the point of attachment. NOTA = O=C(O)CN1CCN(CC(=O)O)CCN(CC(=O)*)CC1; AEEEA = NCCOCCOCCOCC(=O)O
Measured property: tissue to tissue ratio at 1 h
Respond with the number and no other words.

Give the measured tissue to tissue ratio at 1 h of CC[C@H](C)[C@H](NC(=O)[C@H](CCCNC(=N)N)NC(=O)CNC(=O)[C@H](CCC(=O)O)NC(=O)[C@H](CC(N)=O)NC(=O)[C@H](Cc1ccc(O)cc1)NC(=O)[C@H](CCCNC(=N)N)NC(=O)[C@H](Cc1ccc(O)cc1)NC(=O)[C@H](Cc1c[nH]cn1)NC(=O)COCCOCCOCCNC(=O)CN1CCN(CC(=O)O)CCN(CC(=O)O)CC1)C(=O)N[C@@H](CCCNC(=N)N)C(=O)N[C@@H](CC(N)=O)C(=O)O [[^68Ga]Ga-HN11-1, metal not drawn] ({NOTA-AEEEA}-HYRYNEGRIRN-OH) .
6.41
